# EXPERIMENTAL_TARGET: T1, canine OX40L, full length membrane form, expressed on HEK293 cells (canine)
# T1 chain: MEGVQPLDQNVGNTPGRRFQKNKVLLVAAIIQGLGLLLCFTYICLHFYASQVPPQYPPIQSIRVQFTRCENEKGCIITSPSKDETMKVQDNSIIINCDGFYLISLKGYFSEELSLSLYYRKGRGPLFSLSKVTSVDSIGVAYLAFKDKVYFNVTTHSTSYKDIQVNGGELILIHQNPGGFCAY
# PROCEDURE_SUMMARY: cell-based or functional assay
QUANTITY_KIND: % Signal Inhibition Rep2 (%)
Unit % implied. Number only.

Some entries whose results are on file:
[
  {
    "BINDER": "PMX098 (antibody, V domains shown) VH: EVQLVESGGDLVKPGGSLRLSCVASGFTFNTYHMNWVRQAPGKGLHWVAFINSGGSGTSYADTVKGRFTISRDYAKNTLYLQMNSLRAEDTAVYYCASGSIWTHFDYWGQGTLVTVSS VL: SYVLTQLPSVSLTLRQTAHITCGGDIIGSKSVYWYQQKLGQAPVLIIYRDNNRPTGIPERFSGASSGNTATLTISGALAEDEADYYCQVWDSSTQAMFGGGTHLTVL",
    "UNIT_INFO": "%",
    "TEST_VALUE": 55
  },
  {
    "BINDER": "PMX086 (antibody, V domains shown) VH: EVQLVESGGDLVKPGGSLRLSCVASGFTFSSYHMSWVRQAPGKGLQWVAFINSAESSTTYADAVKGRFTISRDNAKNTLYLQMNSLRAEDTAVYYCAGGYIWTHFDYWGQGTLVTVSS VL: SYVLTQLPSVSVTLRQTARITCGGDIIGSKSVYWYQQNLGQAPVLIIYRDTNRPTGIPERFSGASSGNTATLTISGALAEDEADYYCQVWDSSTSVFGGGTHLTVL",
    "UNIT_INFO": "%",
    "TEST_VALUE": 35.1
  },
  {
    "BINDER": "PMX051 (antibody, V domains shown, also called PMX51) VH: EVQLVESGGDLVKPGGSLRLSCVASGFSFNTYHMNWVRQAPGKGLHWVAFINSDGGGTSYADTVKGRFTISRDYAKNTLYLQMNSLRAEDTAVYYCVSGSIWTHFDYWGQGTLVTVSS VL: SYVLTQLPSVSMTLRQTAHITCGGDIIGSKSVYWYQQKLGQAPVLIIYRDTNRPTGIPERFSGASSGNTATLTISGALAEDEADYYCQVWDSSTQAVFGGGTHLTVL",
    "UNIT_INFO": "%",
    "TEST_VALUE": 75.3
  },
  {
    "BINDER": "PMX029 (antibody, V domains shown, also called PMX29) VH: EVQLVESGGDLVKPGGSLRLSCVASGFTFSSYHMNWVRQAPGKGLQWVAYINTGGSRTSYADAVKGRFTISRDNAKNTLYLQMNSLRAEDTAVYYCANNYWDNFDSWGQGTLVTVSS VL: SYELTQPPSVNVTLRETAHITCGGDSIGSKYVQWIQQNPGQAPVVIIYKDTNRPTGIPERFSGANSGNTATLTISGALAEDEADYYCQVGDSGTKASVFGGGTHLTVL",
    "UNIT_INFO": "%",
    "TEST_VALUE": 76.2
  }
]

Now consider a different binder.
I am curious: what % Signal Inhibition Rep2 value has been reported for PMX085 (antibody, V domains shown, also called PMX85) VH: EVKLVESGGDLVKPEGSLRLSCVVSGFTFSRYGMSWVRQAPGKGLQWVAYISSDGRSSSYTDAVQGRFTISSDNAKNTLYLQMNSLTTEDTAVYYCAKLGRGFNFNFWGQGTLVTVSS VL: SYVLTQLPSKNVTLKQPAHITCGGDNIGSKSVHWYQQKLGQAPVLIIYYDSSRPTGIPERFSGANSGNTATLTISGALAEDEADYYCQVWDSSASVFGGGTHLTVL ?
56.2
